- Assay target: FGFR1 (UniProt P11362)
- Sequence (P11362 whole entry, looked up): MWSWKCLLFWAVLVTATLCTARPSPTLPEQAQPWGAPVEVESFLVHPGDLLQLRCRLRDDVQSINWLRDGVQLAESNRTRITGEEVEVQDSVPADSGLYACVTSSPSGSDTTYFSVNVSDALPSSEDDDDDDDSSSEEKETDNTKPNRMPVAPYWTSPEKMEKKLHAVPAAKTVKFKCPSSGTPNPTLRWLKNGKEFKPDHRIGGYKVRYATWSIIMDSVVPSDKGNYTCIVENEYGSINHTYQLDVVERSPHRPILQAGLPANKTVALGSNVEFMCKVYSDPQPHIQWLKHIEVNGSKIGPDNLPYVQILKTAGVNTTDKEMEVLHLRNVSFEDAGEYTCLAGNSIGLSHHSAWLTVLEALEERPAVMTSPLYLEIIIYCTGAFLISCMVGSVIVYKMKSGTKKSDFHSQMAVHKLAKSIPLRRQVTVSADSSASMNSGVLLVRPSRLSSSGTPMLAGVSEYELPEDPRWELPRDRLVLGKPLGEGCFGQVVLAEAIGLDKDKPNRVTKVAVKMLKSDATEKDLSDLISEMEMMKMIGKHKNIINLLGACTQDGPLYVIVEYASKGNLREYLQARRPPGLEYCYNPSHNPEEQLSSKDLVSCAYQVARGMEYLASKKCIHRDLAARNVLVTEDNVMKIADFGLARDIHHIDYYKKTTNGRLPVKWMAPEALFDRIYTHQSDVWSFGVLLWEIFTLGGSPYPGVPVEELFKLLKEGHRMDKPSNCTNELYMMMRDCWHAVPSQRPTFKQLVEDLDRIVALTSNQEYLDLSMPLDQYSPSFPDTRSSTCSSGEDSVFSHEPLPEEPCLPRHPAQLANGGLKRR
- Test summary: phosphorylation enrichment, bacterial display (enrichment ratio); higher = better substrate or ligand; peptides without Tyr show the background
Kindly return t if reported phosphorylation enrichment is no lower than 0.5; return f if it is lower.

Consider the following illustrative entries.
KLFFHYDPKLC [INSR_Y457_N458D] ... f
AEVIWYKGDEV ... f
HCHEGYVLHGA [SVEP1_Y2921_I2922V] ... t
PHMQTYEVDLN [SDHB_Y61] ... t
GDEEDYFEIPG [EGFR_opt_F_2015] ... t
RLAQRYLIWEC [SCN5A_Y694] ... t
NSNSDYVDVLP [SH2D1B_Y127] ... t
ADQLDYIKALN [HPRT1_Y81_L78Q] ... f
LWPIWYSCHRP [MRGPRX1_Y130_R131S] ... t
DPADRYLTEQY [CDKL5_Y286_C291Y] ... f

QUERY: Check if phosphorylation enrichment >= 0.5 (inclusive). Item: HGVSSYDTIIS [LDLR_Y465_V468I]
RESULT: t

QUERY: Check if phosphorylation enrichment >= 0.5 (inclusive). Item: MNLLGYRQVRS [CHST4_Y359_H361Q]
RESULT: f

QUERY: Check if phosphorylation enrichment >= 0.5 (inclusive). Item: SRDTCYLVLAV [AMH_Y195_R194C]
RESULT: t

QUERY: Check if phosphorylation enrichment >= 0.5 (inclusive). Item: GYKVRYATWSI [FGFR1_Y210]
RESULT: t

QUERY: Check if phosphorylation enrichment >= 0.5 (inclusive). Item: LARHMYDKEFF [MET_Y1230_D1228H_YF]
RESULT: t

QUERY: Check if phosphorylation enrichment >= 0.5 (inclusive). Item: GFRVFYTPDSR [PTPRF_Y451_YF]
RESULT: t

QUERY: Check if phosphorylation enrichment >= 0.5 (inclusive). Item: FSLIHYAGIVV [MYH7_Y582_D587V]
RESULT: f

QUERY: Check if phosphorylation enrichment >= 0.5 (inclusive). Item: QELRRYLKSSV [MICA_Y194_G198S]
RESULT: f

###

- System: c-Src
- Test summary: phosphorylation enrichment, bacterial display (enrichment ratio); higher = better substrate or ligand; peptides without Tyr show the background
Kindly return Criterion met if reported phosphorylation enrichment is no lower than 0.5; return Criterion not met if it is lower.

Consider the following illustrative entries.
HFECKYVINAI [MAOA_Y268_YF] ... Criterion met
TPGPNYRPGFN [USH2A_Y463_YF] ... Criterion not met
VSKGGYFSVNL [C3orf33_Y164] ... Criterion not met
VRQQVYKKVEE [HADHA_Y283] ... Criterion not met
ILGRTYFVNHE [NEDD4_Y627_YF] ... Criterion not met

QUERY: Check if phosphorylation enrichment >= 0.5 (inclusive). Item: IHETTYNSIKK [ACTA1_Y281_M285K]
RESULT: Criterion not met

QUERY: Check if phosphorylation enrichment >= 0.5 (inclusive). Item: DVSKEYGHLLP [HRC_Y99]
RESULT: Criterion met

QUERY: Check if phosphorylation enrichment >= 0.5 (inclusive). Item: VLSIDYFFPPQ [AR_Y552_P549S_YF]
RESULT: Criterion met

###

- Assay target: Fyn (UniProt P06241)
- Sequence (P06241 whole entry, looked up): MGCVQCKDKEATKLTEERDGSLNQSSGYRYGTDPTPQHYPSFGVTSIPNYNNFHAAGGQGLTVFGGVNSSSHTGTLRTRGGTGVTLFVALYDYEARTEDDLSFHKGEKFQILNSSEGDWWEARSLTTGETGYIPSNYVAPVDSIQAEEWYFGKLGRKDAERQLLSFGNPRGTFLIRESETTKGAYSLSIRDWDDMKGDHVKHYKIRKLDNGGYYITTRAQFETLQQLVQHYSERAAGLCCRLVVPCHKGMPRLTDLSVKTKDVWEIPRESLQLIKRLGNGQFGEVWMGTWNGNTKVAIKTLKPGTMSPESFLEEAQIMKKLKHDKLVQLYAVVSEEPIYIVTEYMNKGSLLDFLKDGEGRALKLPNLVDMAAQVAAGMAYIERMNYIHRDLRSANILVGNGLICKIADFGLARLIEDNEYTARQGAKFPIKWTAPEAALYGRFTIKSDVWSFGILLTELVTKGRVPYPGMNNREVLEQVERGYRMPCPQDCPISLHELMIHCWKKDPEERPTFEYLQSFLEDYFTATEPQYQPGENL
- Test summary: phosphorylation enrichment, bacterial display (enrichment ratio); higher = better substrate or ligand; peptides without Tyr show the background
Outcome measure: phosphorylation enrichment
Reply with the value as a number alone.

Solved cases (4 shown):
HTVEDYQAIVD [CCT7_Y263] ... 0.773
LPHVIYCRLWC [SMAD2_Y128_R133C] ... 5.86
AIIGIYILRDD [CDH23_Y2949] ... 1.18
LARDMDDKEFF [MET_Y1230_Y1230D_YF] ... 0.342

QUERY: Recorded phosphorylation enrichment for IINENYDYLKV [NUP98_Y1664_G1669V] , please?
RESULT: 0.538

QUERY: Recorded phosphorylation enrichment for WEPFGYAVTRC [PTPRT_Y412] , please?
RESULT: 0.402

QUERY: Recorded phosphorylation enrichment for SDPIIYTLENV [ADGRE1_Y534_I539V] , please?
RESULT: 7

QUERY: Recorded phosphorylation enrichment for TGQEEYSAMRD [KRAS_Y64_A59T] , please?
RESULT: 0.519

QUERY: Recorded phosphorylation enrichment for RSRSSYTHSLN [MYCT1_Y116_G119S] , please?
RESULT: 0.63

###

- System: Fer (mouse)
- Test summary: phosphorylation enrichment, bacterial display (enrichment ratio); higher = better substrate or ligand; peptides without Tyr show the background
Collected phosphorylation enrichment values appear next to each entry.
Reply with the value as a number alone.

Solved cases (5 shown):
SADIAYNFRHG [PAH_Y166_F161S_YF] ... 0.348
PADRAYSWFQH [NDST1_Y711_YF] ... 17.8
RAMPVYEKAEH [TP63_Y231_K232E] ... 1.79
GCVSKYSGVFS [TUBGCP6_Y1624] ... 0.403
FRAPGYREVVI [TNS2_Y673_YF] ... 0.325

QUERY: Recorded phosphorylation enrichment for RGESFYQDTMN [RARS_Y338_R341T] , please?
RESULT: 1.79

QUERY: Recorded phosphorylation enrichment for WFISFYPQVIM [CTNS_Y143_S139F] , please?
RESULT: 0.451

QUERY: Recorded phosphorylation enrichment for LTNDRYVATLT [IL6ST_Y396_L397V] , please?
RESULT: 0.408

QUERY: Recorded phosphorylation enrichment for MKKKTYAMGGG [GAN_Y424_I423T] , please?
RESULT: 0.567

QUERY: Recorded phosphorylation enrichment for IVEYAYNDKAI [PUM3_Y259] , please?
RESULT: 0.631

QUERY: Recorded phosphorylation enrichment for PFRKLYESVKK [MKI67_Y241_W238R] , please?
RESULT: 0.458

QUERY: Recorded phosphorylation enrichment for SAASGYSDVTD [DTX2_Y425_T421A] , please?
RESULT: 0.535

QUERY: Recorded phosphorylation enrichment for SWKRRYFLLRA [APBB1IP_Y331] , please?
RESULT: 0.565

###

- Assay target: c-Src SH2
- Test summary: SH2 binding enrichment of the phosphorylated peptide, bacterial display (enrichment ratio); higher = better substrate or ligand; peptides without Tyr show the background
Outcome measure: SH2 binding enrichment

WFKKFYDANFD [MAPRE2_Y158_YF] ... 0.512

We now examine a further sequence.
QUERY: Recorded SH2 binding enrichment for KLQKFYRQNPD [EHHADH_Y683_YF] , please?
RESULT: 0.418

###

- Assay target: Grb2 SH2 (UniProt P62993)
- Sequence (P62993 whole entry, looked up): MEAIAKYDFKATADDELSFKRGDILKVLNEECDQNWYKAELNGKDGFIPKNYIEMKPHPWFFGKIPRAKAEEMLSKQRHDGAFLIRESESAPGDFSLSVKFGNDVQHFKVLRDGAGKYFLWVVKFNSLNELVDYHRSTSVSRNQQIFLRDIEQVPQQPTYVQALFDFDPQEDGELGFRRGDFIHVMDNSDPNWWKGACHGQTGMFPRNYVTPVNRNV
- Test summary: SH2 binding enrichment of the phosphorylated peptide, bacterial display (enrichment ratio); higher = better substrate or ligand; peptides without Tyr show the background
Collected SH2 binding enrichment values appear next to each entry.
Reply with the value as a number alone.

Solved cases (10 shown):
EQPNPYMVLDI [ROCK2_Y1197_S1194P] ... 0.869
LYSNAYLSDLA [ALDH1A1_Y119_N121S] ... 0.94
EIKLAYRRRPP [GRIN2B_Y1109_E1106K] ... 0.708
CTTIHYMYMCN [TP53_Y234_N235M] ... 0.998
SFNNKYGMVAQ [APOB_Y276_K273N_YF] ... 0.852
RGESFYQDTMN [RARS_Y338_R341T] ... 0.98
LTNDRYVATLT [IL6ST_Y396_L397V] ... 0.764
SCTFTCLLGDR [ETHE1_Y38_Y38C] ... 1.01
KKRRSYGNSSD [SELENOK_Y52] ... 0.601
SGADSYEMEED [EGFR_Y316_C311S] ... 0.979

QUERY: Recorded SH2 binding enrichment for DAPVVYLGSFG [PRAG1_Y132_R137G] , please?
RESULT: 0.646

QUERY: Recorded SH2 binding enrichment for RQGKDYIGAIP [KDR_Y951_V952I] , please?
RESULT: 0.904

QUERY: Recorded SH2 binding enrichment for TDEFEYDELIV [TGM1_Y136_YF] , please?
RESULT: 0.938

###

- Assay target: MERTK (UniProt Q12866)
- Sequence (Q12866 whole entry, looked up): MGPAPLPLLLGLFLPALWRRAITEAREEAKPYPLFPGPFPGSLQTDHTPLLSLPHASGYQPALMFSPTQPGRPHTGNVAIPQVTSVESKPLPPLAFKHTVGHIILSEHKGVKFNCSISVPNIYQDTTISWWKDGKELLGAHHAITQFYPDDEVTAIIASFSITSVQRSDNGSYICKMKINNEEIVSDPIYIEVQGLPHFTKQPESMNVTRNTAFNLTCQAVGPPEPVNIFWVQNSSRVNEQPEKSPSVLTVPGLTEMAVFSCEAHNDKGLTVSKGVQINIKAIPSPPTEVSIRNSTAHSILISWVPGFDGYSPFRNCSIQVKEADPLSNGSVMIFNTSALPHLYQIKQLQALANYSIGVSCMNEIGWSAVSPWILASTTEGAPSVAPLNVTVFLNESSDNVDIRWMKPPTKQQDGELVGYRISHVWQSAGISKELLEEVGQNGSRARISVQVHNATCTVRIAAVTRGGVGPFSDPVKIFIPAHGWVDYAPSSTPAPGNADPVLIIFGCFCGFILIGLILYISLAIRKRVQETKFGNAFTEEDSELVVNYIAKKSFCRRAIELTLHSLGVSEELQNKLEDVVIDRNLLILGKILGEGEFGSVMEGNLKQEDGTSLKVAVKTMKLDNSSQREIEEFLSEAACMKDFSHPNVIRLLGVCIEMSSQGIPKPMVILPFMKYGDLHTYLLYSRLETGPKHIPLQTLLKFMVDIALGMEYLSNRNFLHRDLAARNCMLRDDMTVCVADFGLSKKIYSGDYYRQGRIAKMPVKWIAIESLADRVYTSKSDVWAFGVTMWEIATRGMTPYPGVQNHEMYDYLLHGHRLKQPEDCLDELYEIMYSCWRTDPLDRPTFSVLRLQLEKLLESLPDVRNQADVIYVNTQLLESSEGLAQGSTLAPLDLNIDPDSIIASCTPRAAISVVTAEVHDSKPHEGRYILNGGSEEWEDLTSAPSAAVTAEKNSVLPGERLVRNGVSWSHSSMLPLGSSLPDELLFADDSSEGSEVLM
- Test summary: phosphorylation enrichment, bacterial display (enrichment ratio); higher = better substrate or ligand; peptides without Tyr show the background
Collected phosphorylation enrichment values appear next to each entry.
Reply with the value as a number alone.

Solved cases (3 shown):
DLDTDYGSGFP [RNASEH2A_Y206_YF] ... 0.38
MEYLPYGSLRD [JAK2_Y934] ... 0.511
CENCHYPILPL [LCK_Y25_V28L] ... 0.357

QUERY: Recorded phosphorylation enrichment for WFISFYPQVIM [CTNS_Y143_S139F] , please?
RESULT: 0.315

QUERY: Recorded phosphorylation enrichment for MDQAEYQAKIR [DHX58_Y518] , please?
RESULT: 0.446

QUERY: Recorded phosphorylation enrichment for RKLVDYDSARH [BIN1_Y150] , please?
RESULT: 0.57

QUERY: Recorded phosphorylation enrichment for SLIDGYYRLTE [JAK2_Y372_A377E] , please?
RESULT: 0.441
